Hello, the source for this data is patent US8546377B2, in case you need it.

assayed target: 5HT2C receptors (Homo sapiens, UniProt P28335)
test method notes: Human 5-HT2C functional assay in CHO-K1 cells (calcium flux, FLIPR)
Format: cell-based
Set-up: expressed in transfected cells; host or cells: CHO-K1 cells
details: CHO-K1 cells over-expressing 5HT2C, calcium flux; read-out: EC50 (μM), 5-HT2c Agonist Activity
hey, just use TRUE if measured EC50 is less than 0.02 µM, otherwise FALSE

compound | category
O=C1C[C@H]2CNCCN2c2cc(OC(F)F)ccc2N1 [Example 131] | FALSE

Identify whether the compound O=C1CC2CNCCN2c2cc(OCc3cccc(F)c3)ccc2N1 (centres unmarked) [Example 156] records EC50 below 0.02 µM.
TRUE

hey, is EC50 for O=C1CC2CNCCN2c2cc(OCCc3cccc(F)c3)ccc2N1 (centres unmarked) [Example 152] lower than 0.02 µM or not?
TRUE

Is 0.02 µM strictly greater than the compound's reported EC50? compound: O=C1CC2CNCCN2c2cc(CCc3ccccc3C(F)(F)F)ccc2N1 (centres unmarked) [Example 146]
TRUE

Determine if C1=C(c2ccc3c(c2)N2CCNC[C@@H]2CCO3)CCCC1 [Example 209] shows EC50 strictly lower than 0.02 µM.
TRUE

Dear reviewer, please state whether COc1cccc(-c2ccc3c(c2)N2CCNC[C@@H]2CCO3)c1 [Example 193] has EC50 strictly beneath 0.02 µM.
TRUE

Quick check: does C[C@H](Cc1ccccc1)Oc1ccc2c(c1)N1CCNC[C@@H]1CC(=O)N2 [Example 165] have EC50 under 0.02 µM?
TRUE

In plain terms, does CS(=O)(=O)c1cccc(-c2ccc3c(c2)OCC[C@H]2CNCCN32)c1 [Example 238] come in under 0.02 µM for EC50?
FALSE

Confirm or reject: EC50 of O=C1NCC2CNCCN2c2ccc(NS(=O)(=O)c3cccc(C(F)(F)F)c3)cc21 (centres unmarked) [Example 184] lies strictly below 0.02 µM
FALSE

Quick check: does Cc1cccc2c1OCC[C@H]1CN(CCF)CCN21 [Example 246] have EC50 under 0.02 µM?
TRUE

Check if EC50 falls below 0.02 µM for O=C1C[C@H]2CNCCN2c2cc(OCCc3ccccn3)ccc2N1 [Example 171] .
FALSE

EC50 under 0.02 µM? Item: CN1C(=O)CC2CNCCN2c2ccc(Cl)cc21 (centres unmarked) [Example 80]
FALSE

Is EC50 strictly under 0.02 µM for the entry c1coc(-c2cccc3c2OCC[C@H]2CNCCN32)c1 [Example 251] ?
TRUE

Is the reported EC50 for O=C1CC2CNCCN2c2cc(/C=C/c3ccccc3C(F)(F)F)ccc2N1 (centres unmarked) [Example 142] strictly below 0.02 µM?
FALSE

====

assayed target: 5HT2C receptors (Homo sapiens, UniProt P28335)
test method notes: Human 5-HT2C functional assay in CHO-K1 cells (calcium flux, FLIPR)
Assay type: cell-based
Design: expressed in transfected cells; host or cells: CHO-K1 cells
details: CHO-K1 cells over-expressing 5HT2C, calcium flux; read-out: EC50 (μM), 5-HT2c Agonist Activity
Task for the reader: assign each of the following molecules its reported EC50.
Answers are plain numbers, in µM.

molecule | measured number
Oc1ccccc1-c1ccc2c(c1)N1CCNC[C@@H]1CCO2 | 0.01
CS(=O)(=O)c1ccc(-c2ccc3c(c2)OCC[C@H]2CNCCN32)cc1 | 0.07
O=C1CC2CNCCN2c2cc(-c3cccc4ccccc34)ccc2N1 (centres unmarked) | 0.2
Fc1ccc(-c2ccc3c(c2)N2CCNC[C@@H]2CCO3)cc1 | 0.05

Consider the record given below.
Quick check: EC50 of COc1ccc(-c2ccc3c(c2)N2CCNC[C@@H]2CCO3)cc1 ?
0.4

====

Would you kindly list EC50 for each of these molecules?
assayed target: 5HT2B receptors (Homo sapiens)
Construct: expressed in transfected cells; host or cells: CHO-K1 cells
Sequence (P41595 whole entry): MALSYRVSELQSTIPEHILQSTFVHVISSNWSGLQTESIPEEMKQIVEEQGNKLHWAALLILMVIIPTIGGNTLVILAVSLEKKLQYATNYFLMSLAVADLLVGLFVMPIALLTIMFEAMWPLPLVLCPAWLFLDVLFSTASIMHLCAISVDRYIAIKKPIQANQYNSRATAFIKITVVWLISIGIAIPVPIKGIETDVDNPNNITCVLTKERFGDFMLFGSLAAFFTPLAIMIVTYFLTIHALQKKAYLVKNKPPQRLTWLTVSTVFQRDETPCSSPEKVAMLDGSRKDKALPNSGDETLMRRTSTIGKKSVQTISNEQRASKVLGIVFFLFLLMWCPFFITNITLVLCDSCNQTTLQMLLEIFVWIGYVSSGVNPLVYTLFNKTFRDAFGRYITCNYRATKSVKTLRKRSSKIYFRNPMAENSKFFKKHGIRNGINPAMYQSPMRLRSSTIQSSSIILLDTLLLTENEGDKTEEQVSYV
test method notes: Human 5-HT2B functional assay in CHO-K1 cells (calcium flux, FLIPR)
Assay type: cell-based
Procedure: (iii) Human 5-HT2C and 5-HT2B Functional Assay in CHO-K1 Cells […] Fluorescence measurements were read at 25° C. at an excitation wavelength of 480 nm and an emission wavelength of 530 nm in FLIPR (MDS). Baseline fluorescence was measured for the first 10 seconds and then 15 μL of 4× concentrations of serotonin/test compounds was added to the cell plate. The fluorescence intensity was captured every second for the first 1 minute followed by every 5 seconds for an additional 2 minutes. […]
Numbers only, in nM.

molecule | scale unit | EC50
COc1ccc2c(c1)N1CCNC[C@@H]1CC(=O)N2 [Example 43] | nM | 60
O=C1CC2CNCCN2c2cc(-c3ccccn3)ccc2N1 (stereo not shown) [Example 71] | nM | 20
Cc1ccc2c(c1)OCC[C@@H]1CNCCN21 [Example 259] | nM | 100

Proceed to the following item.
Could you share which EC50 value was measured for Cc1ccc2c(c1)N1CCNC[C@@H]1CCO2 [Example 137] ?
50

====

assayed target: 5HT2C receptors (Homo sapiens, UniProt P28335)
Sequence (P28335 33-458): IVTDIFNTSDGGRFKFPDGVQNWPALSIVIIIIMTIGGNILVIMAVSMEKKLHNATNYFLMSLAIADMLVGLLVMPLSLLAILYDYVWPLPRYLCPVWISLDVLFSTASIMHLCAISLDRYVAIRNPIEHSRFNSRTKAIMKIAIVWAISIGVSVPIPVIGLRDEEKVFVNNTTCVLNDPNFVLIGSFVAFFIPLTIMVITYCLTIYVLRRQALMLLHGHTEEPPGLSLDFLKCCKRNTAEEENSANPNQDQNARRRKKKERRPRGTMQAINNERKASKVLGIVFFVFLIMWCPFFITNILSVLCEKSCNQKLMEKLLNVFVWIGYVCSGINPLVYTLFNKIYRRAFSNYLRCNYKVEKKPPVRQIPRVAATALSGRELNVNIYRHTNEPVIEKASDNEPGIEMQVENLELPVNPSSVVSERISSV
test method notes: Human 5-HT2C functional assay in CHO-K1 cells (calcium flux, FLIPR)
Format: cell-based
Design: expressed in transfected cells; host or cells: CHO-K1 cells
details: CHO-K1 cells over-expressing 5HT2C, calcium flux; read-out: EC50 (μM), 5-HT2c Agonist Activity
Could you mark each record criterion met if its EC50 falls strictly under 0.03 µM, and criterion not met if it equals or exceeds it?

compound | category
Cc1cccc(-c2ccc3c(c2)N2CCNCC2CC(=O)N3)c1 (stereo not drawn) [Example 89] | criterion not met
CC(O)c1cccc(-c2ccc3c(c2)OCC[C@H]2CNCCN32)c1 (stereo partly drawn) [Example 229] | criterion met
CN1CCN2c3cc(-c4cccc(S(C)(=O)=O)c4)ccc3OCC[C@H]2C1 [Example 221] | criterion not met

For this compound, is EC50 lower than 0.03 µM? O=C1CC2CNCCN2c2cc(CCc3cc(F)cc(F)c3)ccc2N1 (stereo not drawn) [Example 147]
criterion met

Dear reviewer, please state whether FC(F)(F)c1cccc2c1OCC[C@H]1CNCCN21 [Example 215] has EC50 strictly beneath 0.03 µM.
criterion met

Answer whether the compound C[C@H](Oc1ccc2c(c1)N1CCNCC1CC(=O)N2)c1ccccc1 (stereo partly drawn) [Example 154] has EC50 strictly less than 0.03 µM
criterion not met

# strict comparison: is reported EC50 < 0.03 µM? input = O=C1CC2CNCCN2c2ccc(NS(=O)(=O)c3ccccc3)cc2N1 (stereo not drawn) [Example 76]
criterion not met

====

assayed target: h-5-HT6 receptor (Homo sapiens)
Construct: expressed in transfected cells; host or cells: HEK293 cells (membrane preparation)
Sequence (P50406 whole entry): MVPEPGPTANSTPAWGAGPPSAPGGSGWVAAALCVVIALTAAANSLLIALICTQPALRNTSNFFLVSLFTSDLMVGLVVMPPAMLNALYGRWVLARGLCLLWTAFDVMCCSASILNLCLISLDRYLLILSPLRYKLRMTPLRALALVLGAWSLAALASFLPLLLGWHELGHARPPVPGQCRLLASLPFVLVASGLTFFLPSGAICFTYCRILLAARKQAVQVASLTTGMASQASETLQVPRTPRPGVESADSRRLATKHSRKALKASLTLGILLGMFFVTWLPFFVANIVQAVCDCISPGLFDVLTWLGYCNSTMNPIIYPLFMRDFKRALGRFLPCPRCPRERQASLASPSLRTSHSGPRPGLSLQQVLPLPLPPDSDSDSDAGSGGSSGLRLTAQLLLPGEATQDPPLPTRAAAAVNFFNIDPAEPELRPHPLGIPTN
test method notes: Human 5-HT6 receptor radioligand binding assay ([3H]-LSD, HEK293 membranes)
details: HEK293 membranes, 1 nM [3H]-lysergic acid diethylamide, 3.5 hours at room temperature; read-out: Ki (μM), 5-HT6 Agonist Site Radioligand Binding
metric name: log10 Ki (log10 of the value in µM)
log10 Ki, µM

Solved cases below.
compound | log10 Ki
Cc1cccc(S(=O)(=O)Nc2ccc3c(c2)NC(=O)CC2CNCCN32)c1 (stereo not shown) | -1.32
O=C1CC2CNCCN2c2ccc(NS(=O)(=O)c3ccccc3OC(F)(F)F)cc2N1 (stereo not shown) | -1.74
Cc1ccc(C)c(S(=O)(=O)Nc2ccc3c(c2)NC(=O)CC2CNCCN32)c1 (stereo not shown) | -1.81

Okay, here is my list. What is log10 Ki for each of these?
1. COc1ccccc1S(=O)(=O)Nc1ccc2c(c1)NC(=O)CC1CNCCN21 (stereo not shown)
2. O=C1CC2CNCCN2c2ccc(NS(=O)(=O)c3ccc(Cl)s3)cc2N1 (stereo not shown)
3. O=C1CC2CNCCN2c2ccc(NS(=O)(=O)c3ccc4ccccc4c3)cc2N1 (stereo not shown)
4. COc1ccc(S(=O)(=O)Nc2ccc3c(c2)NC(=O)CC2CNCCN32)cc1 (stereo not shown)

-1.59
-1.35
-2.37
-1.17
